# assay comment: Cytotoxicity in FL cells (experiment repeated without the virus)
# assay setup: human
property name: MCC (µg/mL)
Quick note: give the figure in µg/mL, leave out the unit.

Example results:
Per the record, C[C@@H]1O[C@@H](O[C@H]2C[C@@H](O)[C@]3(CO)[C@H]4[C@H](O)C[C@]5(C)[C@@H](C6=CC(=O)OC6)CC[C@]5(O)[C@@H]4CC[C@]3(O)C2)[C@H](O)[C@H](O)[C@H]1O has MCC of 0.46

Per the record, C[C@@H]1O[C@@H](O[C@H]2CC[C@]3(C=O)[C@H]4CC[C@]5(C)[C@@H](C6=CC(=O)OC6)CC[C@]5(O)[C@@H]4CC[C@]3(O)C2)[C@H](O)[C@H](O)[C@H]1O has MCC of 0.38

Per the record, C[C@H]1O[C@@H](O[C@H]2[C@@H](O)C[C@H](O[C@H]3[C@@H](O)C[C@H](O[C@H]4CC[C@@]5(C)[C@H](CC[C@@H]6[C@@H]5C[C@@H](O)[C@]5(C)[C@@H](C7=CC(=O)OC7)CC[C@]65O)C4)O[C@@H]3C)O[C@@H]2C)C[C@H](O)[C@@H]1O has MCC of 0.48

Per the record, C[C@H]1O[C@@H](O[C@H]2[C@@H](O)C[C@H](O[C@H]3[C@@H](O)C[C@H](O[C@H]4CC[C@@]5(C)[C@H](CC[C@@H]6[C@@H]5CC[C@]5(C)[C@@H](C7=CC(=O)OC7)CC[C@]65O)C4)O[C@@H]3C)O[C@@H]2C)C[C@H](O)[C@@H]1O has MCC of 0.48

Now look at this entry.
Per the record, C[C@H]1O[C@@H](O[C@H]2CC[C@]3(C=O)[C@H]4CC[C@]5(C)[C@@H](C6=CC(=O)OC6)CC[C@]5(O)[C@@H]4CC[C@]3(O)C2)C[C@H](O)[C@@H]1O has MCC of 0.46

---

# assay comment: in vitro
# assay setup: human, fl cells
property name: MCC at 24 h (µg/mL)
Quick note: give the figure in µg/mL, leave out the unit.

Per the record, C[C@]12CC[C@H](O)C[C@H]1CC[C@@H]1[C@@H]2CC[C@]2(C)[C@@H](c3ccc(=O)oc3)CC[C@]12O [Compound 7, 3,14-dihydroxybufa-20,22-dienolide] has MCC at 24 h of 0.5
